- System: 233499-124-R-J3-PDC complex spheroid viability;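 note: spheroids exposed to the drug combinations for seven days; percent viability relative to DMSO vehicle control wells taken as 100%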
- Experiment Summary: Anticancer human tumor 233499-124-R-J3-PDC patient-derived colon adenocarcinoma cell line growth inhibition [CLK]
- Assay Context: second compound 3.16 µM; first compound 0.3 µM; stronger effect = lower value
Task for the reader: assign each of the following molecules its reported viability, T/C.

CC(C)CC(NC(=O)C(Cc1ccccc1)NC(=O)c1cnccn1)B(O)O (stereo unspecified) + CN1CCN(c2cc(C(=O)Nc3cc4cc(-c5cnn(C)c5)ccc4cn3)ccn2)CC1
0.33%
C=CC(=O)Nc1cc(Nc2nccc(-c3cn(C)c4ccccc34)n2)c(OC)cc1N(C)CCN(C)C + CNC(=O)c1ccc(Nc2nc(OC3CCCC3)c3c(-c4ccc5nc(C)oc5c4)c[nH]c3n2)c(OC)c1
67.7%
CC(C)CC(NC(=O)C(Cc1ccccc1)NC(=O)c1cnccn1)B(O)O (stereo unspecified) + CNC(=O)c1ccc(Nc2nc(OC3CCCC3)c3c(-c4ccc5nc(C)oc5c4)c[nH]c3n2)c(OC)c1
0.7%
NC(=O)C(=Cn1cnc(-c2cc(C(F)(F)F)cc(C(F)(F)F)c2)n1)c1cncnc1 + CN1CCN(c2cc(C(=O)Nc3cc4cc(-c5cnn(C)c5)ccc4cn3)ccn2)CC1
0.25%
NC(=O)C(=Cn1cnc(-c2cc(C(F)(F)F)cc(C(F)(F)F)c2)n1)c1cncnc1 + CNC(=O)c1ccc(Nc2nc(OC3CCCC3)c3c(-c4ccc5nc(C)oc5c4)c[nH]c3n2)c(OC)c1
26.3%

Turning to the following molecule.
Record C=CC(=O)Nc1cc(Nc2nccc(-c3cn(C)c4ccccc34)n2)c(OC)cc1N(C)CCN(C)C + CN1CCN(c2cc(C(=O)Nc3cc4cc(-c5cnn(C)c5)ccc4cn3)ccn2)CC1 , field viability, T/C: 1.62%
